For each of the compounds below, state its Ki.

Ask: // fetch D(1B) dopamine receptor (Homo sapiens, UniProt P21918) Ki for `O=C(NCCCCN1CCN(c2cccc(Cl)c2Cl)CC1)c1ccc2c(c1)-c1ccccc1-2`
Reply: > 10 µM

Ask: // fetch D(1B) dopamine receptor (Homo sapiens, UniProt P21918) Ki for `O=C(NCCCCN1CCN(c2cccc(Cl)c2Cl)CC1)c1ccc2c(c1)Cc1ccccc1-2`
Reply: > 10 µM

---

target: D(3) dopamine receptor (Homo sapiens); assay: Compound was evaluated for binding affinity against human Dopamine receptor D3 transfected in CHO cell membranes to stimulate [3H]thymidine uptake
Sequence (P35462 whole entry): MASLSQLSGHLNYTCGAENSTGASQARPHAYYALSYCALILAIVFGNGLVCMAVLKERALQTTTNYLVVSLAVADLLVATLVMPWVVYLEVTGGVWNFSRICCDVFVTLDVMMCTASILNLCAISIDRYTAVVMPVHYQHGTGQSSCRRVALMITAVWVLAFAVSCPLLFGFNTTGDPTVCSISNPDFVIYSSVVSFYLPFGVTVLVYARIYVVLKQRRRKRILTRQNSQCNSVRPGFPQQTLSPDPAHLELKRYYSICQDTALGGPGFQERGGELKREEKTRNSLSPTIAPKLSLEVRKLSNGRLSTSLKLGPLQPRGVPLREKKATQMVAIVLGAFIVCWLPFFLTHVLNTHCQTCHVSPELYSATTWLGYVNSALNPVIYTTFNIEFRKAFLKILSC
ENDPOINT: Ki (nM)
Return type: number; implicit unit nM.

Ask: // fetch D(3) dopamine receptor (Homo sapiens) Ki for `O=C(NCCCCN1CCN(c2cccc(Cl)c2Cl)CC1)c1ccc2c(c1)-c1ccccc1-2`
Reply: 0.9

Taken from ChEMBL document CHEMBL1130602.
